Reported IC50 values for a set of molecules
Molecular target: human TRPV4 (hTRPV4/CHO cells) (Homo sapiens, UniProt Q9HBA0)
Construct: expressed in transfected cells; host or cells: CHO-K1
Sequence (Q9HBA0 whole entry): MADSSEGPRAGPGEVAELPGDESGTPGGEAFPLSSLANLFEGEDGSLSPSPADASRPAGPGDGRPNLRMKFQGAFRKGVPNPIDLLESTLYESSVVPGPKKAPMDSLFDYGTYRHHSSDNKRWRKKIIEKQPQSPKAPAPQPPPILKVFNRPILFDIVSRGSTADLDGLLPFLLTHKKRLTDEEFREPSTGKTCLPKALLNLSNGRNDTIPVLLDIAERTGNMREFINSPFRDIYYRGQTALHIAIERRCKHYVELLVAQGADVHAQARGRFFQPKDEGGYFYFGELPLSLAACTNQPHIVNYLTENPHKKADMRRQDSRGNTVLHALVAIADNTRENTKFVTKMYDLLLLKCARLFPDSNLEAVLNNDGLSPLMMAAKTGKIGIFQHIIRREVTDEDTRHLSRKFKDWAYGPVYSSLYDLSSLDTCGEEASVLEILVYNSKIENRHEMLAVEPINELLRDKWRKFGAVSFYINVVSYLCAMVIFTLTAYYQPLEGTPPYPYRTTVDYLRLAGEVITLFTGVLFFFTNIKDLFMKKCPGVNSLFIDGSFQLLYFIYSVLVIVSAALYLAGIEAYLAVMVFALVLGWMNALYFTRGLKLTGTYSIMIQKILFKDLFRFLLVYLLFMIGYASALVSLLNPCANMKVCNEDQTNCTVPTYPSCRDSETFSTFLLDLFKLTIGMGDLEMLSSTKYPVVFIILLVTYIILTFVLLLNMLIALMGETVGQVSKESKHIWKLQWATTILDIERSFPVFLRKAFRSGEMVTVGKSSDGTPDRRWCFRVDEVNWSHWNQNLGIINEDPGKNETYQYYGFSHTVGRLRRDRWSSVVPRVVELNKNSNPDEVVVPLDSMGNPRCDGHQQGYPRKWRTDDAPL
Test: Test Example 1: TRPV4 inhibitory activity (IC50 value), 4α-PDD stimulation, Fluo4 calcium fluorescence (FLIPR TETRA)
Type: cell-based
Conditions: Test Example 1, 4α-PDD stimulation, read-out: Test 1 IC50

Cc1nc(CO)sc1-c1csc(NC(=O)C2CC2(F)F)n1 (stereo not shown) :: 100 to 1000 nM

Need IC50 of Cc1nc(C)c(-c2csc(NC(=O)C(C)(C)c3ccc(Cl)cc3)n2)s1 , thanks.
100 to 1000 nM

Need IC50 of Cc1nc(C)c(-c2nc(NC(=O)Cc3c(F)cccc3F)sc2I)s1 , thanks.
1000 to 8000 nM

Need IC50 of Cc1nc(C)c(-c2csc(NC(=O)Cc3cccc(NC(=O)C(F)(F)F)c3)n2)s1 , thanks.
< 100 nM

Need IC50 of Cc1nc(C)c(-c2csc(NC(=O)Cc3cccc(C(=O)Nc4ccccc4)c3)n2)s1 , thanks.
< 100 nM

Need IC50 of CC(OC(N)=O)c1nc(CO)sc1-c1csc(NC(=O)Cc2ccc(S(=O)(=O)C(F)(F)F)cc2)n1 (racemic) [Compound I-474] , thanks.
100 to 1000 nM

Need IC50 of COC(=O)c1cccc(CC(=O)Nc2nc(-c3sc(C)nc3C)cs2)n1 , thanks.
100 to 1000 nM

Need IC50 of Cc1nc(CO)sc1-c1csc(NC(=O)C2CC(OCC3CC3)C2)n1 (stereo not shown) , thanks.
1000 to 8000 nM

Need IC50 of Cc1nc(C)c(-c2csc(NC(=O)C3CN(c4ccc(-c5ccccc5)nn4)C3)n2)s1 , thanks.
100 to 1000 nM

Need IC50 of Cc1nc(CO)sc1-c1csc(NC(=O)C2CC(OCc3cccnc3)C2)n1 (stereo not shown) , thanks.
1000 to 8000 nM

Need IC50 of Cc1nc(C)c(-c2csc(NC(=O)Cc3cccc(C(=O)N[C@H](c4ccccc4)C(F)(F)F)c3)n2)s1 , thanks.
< 100 nM

Need IC50 of Cc1nc(CO)sc1-c1csc(NC(=O)[C@@H]2C[C@@H](c3ccccc3)CN2C(=O)OC(C)C)n1 , thanks.
< 100 nM
